# System under test: UniProtKB P24941
# Test: CDK2 HTRF kinase assay (Ki measurement)
# Format: biochemical
pKi: −log10 of the molar value.
Endpoint: pKi

1) COc1ccc(F)cc1C(=S)c1cnc(NC2CCN(S(C)(=O)=O)CC2)nc1N; 8.89
2) CS(=O)(=O)N1CCC(Nc2ncc(C(=S)c3c(F)cccc3F)c(N)n2)CC1; 9.00

----------
Each entry below lists one item and its recorded Ki value.
# System under test: UniProt P24941
# Test: CDK2 HTRF kinase assay (Ki measurement)
# Assay type: biochemical
# Condition summary: HTRF assay, ATP at 3x Km; read-out: Ki CDK2
Endpoint: Ki

1) COc1ccc(F)c(F)c1C(=S)c1cnc(NC2CCN(S(N)(=O)=O)CC2)nc1N [Example 4]; < 1 nM
2) COc1ccc(F)c(F)c1C(=S)c1cnc(Nc2ccc(S(C)(=O)=O)cc2)nc1N [Example 12]; 1 nM
3) COc1ccc(F)c(F)c1C(=S)c1cnc(NC2CCN(S(=O)(=O)c3ccccn3)CC2)nc1N [Example 10]; 1 nM
4) COc1ccc(F)c(F)c1C(=S)c1cnc(NC2CCN(S(C)(=O)=O)C2)nc1N (stereo not drawn) [Example 18]; 1 nM
5) COc1ccc(F)c(F)c1C(=S)c1cnc(NC2CCN(S(=O)(=O)CCCN3CCOCC3)CC2)nc1N [Example 9]; 1 nM
6) CS(=O)(=O)N1CCC(Nc2ncc(C(=S)c3c(Cl)ccc(F)c3F)c(N)n2)CC1 [Example 13]; 1 nM
